Test system: 349418-098-R tumor spheroid viability
Procedure summary: Anticancer human tumor 349418-098-R patient-derived lung adenocarcinoma cell line growth inhibition
Details: second compound 10 µM; first compound 0.1 µM; hits give low values; spheroids with HUVEC and MSC
Method: Multicellular complex tumor spheroid response to DNA repair inhibitors in combination with DNA-damaging drugs This study explores the anticancer activities of DNA-damaging drugs and inhibitors of DNA damage repair, both as single agents and in combinations. […] Twenty-six patient-derived or established malignant cell lines were evaluated representing sarcoma, melanoma, small cell lung cancer (SCLC), non-small cell lung cancer (NSCLC), as well as bladder, ovarian and pancreatic cancers. […]

Compound	Assayed target	Unit of measure	viability, T/C
COc1cc(C)[nH]c(=O)c1CN1CCc2c(Cl)cc(C(OC)C3COC3)c(Cl)c2C1=O (stereo unspecified) + Cn1nnc2c(C(N)=O)ncn2c1=O	349418-098-R tumor spheroid viability	%	96.7
COc1ccc([C@@H](O)c2cc(-c3ncnc4cc(N5CCOCC5)ccc34)c(F)cc2Cl)nn1 + Cn1nnc2c(C(N)=O)ncn2c1=O	349418-098-R tumor spheroid viability	%	97.5
[2H]c1nc(C)nc([2H])c1-c1cc(NC[C@@H](C)c2cccc3c(C(=O)NC)ccnc23)ncn1 + Cn1nnc2c(C(N)=O)ncn2c1=O	349418-098-R tumor spheroid viability	%	96.6
CC1COCCN1c1cc(-c2ccnn2C)c2ccnc(-c3ccn[nH]3)c2n1 (stereo unspecified) + Cn1nnc2c(C(N)=O)ncn2c1=O	349418-098-R tumor spheroid viability	%	20
CC(C)n1c(=O)n(C)c2cnc3cc(F)c(-c4ccc(OCCCN5CCCCC5)nc4)cc3c21 + Cn1nnc2c(C(N)=O)ncn2c1=O	349418-098-R tumor spheroid viability	%	103
Cc1cc(C)c(CNC(=O)c2cc(-c3ccc(CN4CCOCC4)cc3)cc3c2cnn3C2CCCC2)c(=O)[nH]1 + Cn1nnc2c(C(N)=O)ncn2c1=O	349418-098-R tumor spheroid viability	%	106

----------
System: 349418-098-R tumor spheroid viability
Procedure summary: Anticancer human tumor 349418-098-R cell line growth inhibition
Details: second compound 31.6 µM; first compound 10 µM; hits give low values; spheroids with HUVEC and MSC
Strictly below 20% in viability, T/C: Y. Otherwise: N.

Compound	Assayed target	Label value
[2H]c1nc(C)nc([2H])c1-c1cc(NC[C@@H](C)c2cccc3c(C(=O)NC)ccnc23)ncn1 + Cn1nnc2c(C(N)=O)ncn2c1=O	349418-098-R tumor spheroid viability	N
CC(C)n1c(=O)n(C)c2cnc3cc(F)c(-c4ccc(OCCCN5CCCCC5)nc4)cc3c21 + Cn1nnc2c(C(N)=O)ncn2c1=O	349418-098-R tumor spheroid viability	N
COc1cc(C)[nH]c(=O)c1CN1CCc2c(Cl)cc(C(OC)C3COC3)c(Cl)c2C1=O (stereo unspecified) + Cn1nnc2c(C(N)=O)ncn2c1=O	349418-098-R tumor spheroid viability	N
COc1ccc([C@@H](O)c2cc(-c3ncnc4cc(N5CCOCC5)ccc34)c(F)cc2Cl)nn1 + Cn1nnc2c(C(N)=O)ncn2c1=O	349418-098-R tumor spheroid viability	N
CC1COCCN1c1cc(-c2ccnn2C)c2ccnc(-c3ccn[nH]3)c2n1 (stereo unspecified) + Cn1nnc2c(C(N)=O)ncn2c1=O	349418-098-R tumor spheroid viability	Y

----------
In this section, each of the compounds is paired with its reported viability, T/C.
System: 349418-098-R tumor spheroid viability
Procedure summary: Anticancer human tumor 349418-098-R cell line growth inhibition;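 note: spheroids exposed to compound for 7 days before measurement; percent of vehicle control viability with 100% = DMSO-treated spheroids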
Details: second compound 3.16 µM; first compound 3 µM; hits give low values; spheroids with HUVEC and MSC

Compound	viability, T/C (%)
O=C(c1cc(Cc2n[nH]c(=O)c3ccccc23)ccc1F)N1CCN(C(=O)C2CC2)CC1 + Cn1nnc2c(C(N)=O)ncn2c1=O	99
CNCc1ccc(-c2cc(-c3nc(-c4ccc(S(=O)(=O)C(C)C)cc4)cnc3N)on2)cc1 + Cn1nnc2c(C(N)=O)ncn2c1=O	1.85
Cn1ncnc1[C@H]1c2n[nH]c(=O)c3cc(F)cc(c23)N[C@@H]1c1ccc(F)cc1 + Cn1nnc2c(C(N)=O)ncn2c1=O	6.31
Cc1sc2c(c1C)C(c1ccc(Cl)cc1)=NC(CC(=O)Nc1ccc(O)cc1)c1nnc(C)n1-2 (centres undefined) + Cn1nnc2c(C(N)=O)ncn2c1=O	0.49

----------
Reported viability, T/C values for the following compounds.
System: 349418-098-R tumor spheroid viability
Procedure summary: Anticancer human tumor 349418-098-R cell line growth inhibition;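 note: spheroids exposed to compound for 7 days before measurement; percent of vehicle control viability with 100% = DMSO-treated spheroids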
Details: second compound 0.000949 µM; first compound 1 µM; hits give low values; spheroids with HUVEC and MSC
Value type: viability, T/C (%)

Compound	Unit of measure	Measured number
COc1cc(C)[nH]c(=O)c1CN1CCc2c(Cl)cc(C(OC)C3COC3)c(Cl)c2C1=O (stereo unspecified) + COc1cc2c(cc1O)CCNC21CSC2c3c(OC(C)=O)c(C)c4c(c3C(COC1=O)N1C(O)C3Cc5cc(C)c(OC)c(O)c5C(C21)N3C)OCO4	%	0.46
COc1ccc([C@@H](O)c2cc(-c3ncnc4cc(N5CCOCC5)ccc34)c(F)cc2Cl)nn1 + COc1cc2c(cc1O)CCNC21CSC2c3c(OC(C)=O)c(C)c4c(c3C(COC1=O)N1C(O)C3Cc5cc(C)c(OC)c(O)c5C(C21)N3C)OCO4	%	0.35
[2H]c1nc(C)nc([2H])c1-c1cc(NC[C@@H](C)c2cccc3c(C(=O)NC)ccnc23)ncn1 + COc1cc2c(cc1O)CCNC21CSC2c3c(OC(C)=O)c(C)c4c(c3C(COC1=O)N1C(O)C3Cc5cc(C)c(OC)c(O)c5C(C21)N3C)OCO4	%	0.58
Cc1cc(C)c(CNC(=O)c2cc(-c3ccc(CN4CCOCC4)cc3)cc3c2cnn3C2CCCC2)c(=O)[nH]1 + COc1cc2c(cc1O)CCNC21CSC2c3c(OC(C)=O)c(C)c4c(c3C(COC1=O)N1C(O)C3Cc5cc(C)c(OC)c(O)c5C(C21)N3C)OCO4	%	0.48
CC1COCCN1c1cc(-c2ccnn2C)c2ccnc(-c3ccn[nH]3)c2n1 (stereo unspecified) + COc1cc2c(cc1O)CCNC21CSC2c3c(OC(C)=O)c(C)c4c(c3C(COC1=O)N1C(O)C3Cc5cc(C)c(OC)c(O)c5C(C21)N3C)OCO4	%	0.39
CC(C)n1c(=O)n(C)c2cnc3cc(F)c(-c4ccc(OCCCN5CCCCC5)nc4)cc3c21 + COc1cc2c(cc1O)CCNC21CSC2c3c(OC(C)=O)c(C)c4c(c3C(COC1=O)N1C(O)C3Cc5cc(C)c(OC)c(O)c5C(C21)N3C)OCO4	%	1.21

----------
Test system: 349418-098-R tumor spheroid viability
Procedure summary: Anticancer human tumor 349418-098-R cell line growth inhibition;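 note: spheroids exposed to compound for 7 days before measurement; percent of vehicle control viability with 100% = DMSO-treated spheroids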
Details: second compound 94.9 pM; first compound 3 µM; hits give low values; spheroids with HUVEC and MSC
Experimental: Multicellular complex tumor spheroid response to DNA repair inhibitors in combination with DNA-damaging drugs This study explores the anticancer activities of DNA-damaging drugs and inhibitors of DNA damage repair, both as single agents and in combinations. […] Twenty-six patient-derived or established malignant cell lines were evaluated representing sarcoma, melanoma, small cell lung cancer (SCLC), non-small cell lung cancer (NSCLC), as well as bladder, ovarian and pancreatic cancers. […]

Compound	viability, T/C (%)
Cc1sc2c(c1C)C(c1ccc(Cl)cc1)=NC(CC(=O)Nc1ccc(O)cc1)c1nnc(C)n1-2 (centres undefined) + COc1cc2c(cc1O)CCNC21CSC2c3c(OC(C)=O)c(C)c4c(c3C(COC1=O)N1C(O)C3Cc5cc(C)c(OC)c(O)c5C(C21)N3C)OCO4	0.57
O=C(c1cc(Cc2n[nH]c(=O)c3ccccc23)ccc1F)N1CCN(C(=O)C2CC2)CC1 + COc1cc2c(cc1O)CCNC21CSC2c3c(OC(C)=O)c(C)c4c(c3C(COC1=O)N1C(O)C3Cc5cc(C)c(OC)c(O)c5C(C21)N3C)OCO4	107
Cn1ncnc1[C@H]1c2n[nH]c(=O)c3cc(F)cc(c23)N[C@@H]1c1ccc(F)cc1 + COc1cc2c(cc1O)CCNC21CSC2c3c(OC(C)=O)c(C)c4c(c3C(COC1=O)N1C(O)C3Cc5cc(C)c(OC)c(O)c5C(C21)N3C)OCO4	4.92
CNCc1ccc(-c2cc(-c3nc(-c4ccc(S(=O)(=O)C(C)C)cc4)cnc3N)on2)cc1 + COc1cc2c(cc1O)CCNC21CSC2c3c(OC(C)=O)c(C)c4c(c3C(COC1=O)N1C(O)C3Cc5cc(C)c(OC)c(O)c5C(C21)N3C)OCO4	3.32

----------
System: 349418-098-R tumor spheroid viability
Procedure summary: Anticancer human tumor 349418-098-R cell line growth inhibition;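 note: spheroids exposed to compound for 7 days before measurement; percent of vehicle control viability with 100% = DMSO-treated spheroids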
Details: second compound 94.9 pM; first compound 1 µM; hits give low values; spheroids with HUVEC and MSC
// values below are reported viability, T/C

Molecule	viability, T/C (%)
[2H]c1nc(C)nc([2H])c1-c1cc(NC[C@@H](C)c2cccc3c(C(=O)NC)ccnc23)ncn1 + COc1cc2c(cc1O)CCNC21CSC2c3c(OC(C)=O)c(C)c4c(c3C(COC1=O)N1C(O)C3Cc5cc(C)c(OC)c(O)c5C(C21)N3C)OCO4	107
CC1COCCN1c1cc(-c2ccnn2C)c2ccnc(-c3ccn[nH]3)c2n1 (centres undefined) + COc1cc2c(cc1O)CCNC21CSC2c3c(OC(C)=O)c(C)c4c(c3C(COC1=O)N1C(O)C3Cc5cc(C)c(OC)c(O)c5C(C21)N3C)OCO4	10.6
CC(C)n1c(=O)n(C)c2cnc3cc(F)c(-c4ccc(OCCCN5CCCCC5)nc4)cc3c21 + COc1cc2c(cc1O)CCNC21CSC2c3c(OC(C)=O)c(C)c4c(c3C(COC1=O)N1C(O)C3Cc5cc(C)c(OC)c(O)c5C(C21)N3C)OCO4	92.7
Cc1cc(C)c(CNC(=O)c2cc(-c3ccc(CN4CCOCC4)cc3)cc3c2cnn3C2CCCC2)c(=O)[nH]1 + COc1cc2c(cc1O)CCNC21CSC2c3c(OC(C)=O)c(C)c4c(c3C(COC1=O)N1C(O)C3Cc5cc(C)c(OC)c(O)c5C(C21)N3C)OCO4	118
